Please respond with reported pIC50 for every item in the list.
biological target: PDE1A (Homo sapiens (Human)); experiment: biochemical; assay type: biochemical; conditions: 15 nM tritium labelled cAMP, 1 hr at room temperature, SPA beads
Scale: pIC50 equals -log10([C]), with [C] in mol/L.

Record "Cc1nn(C(C)C)c2c(NCc3cnn(C)c3)cc(-c3ccc[nH]c3=O)nc12" , field pIC50: 6.89

Record "Cc1coc(-c2cc(NCc3cnn(C)c3)c3c(n2)c(C)nn3C(C)C)n1" , field pIC50: 7.04

Record "CCOc1ncccc1-c1cc(NCc2nnn(C)n2)c2c(n1)c(C)nn2C(C)C" , field pIC50: 8.54

Record "CCOc1ncccc1-c1cc(NCc2ccncc2)c2c(cnn2C(C)C)n1" , field pIC50: 6.60

Record "CCOc1ncccc1-c1cc(NCc2nnco2)c2c(n1)c(C)nn2C(C)C" , field pIC50: 7.26

Record "CCOc1ncccc1-c1cc(NCc2cccnc2C(F)(F)F)c2c(n1)c(C)nn2C(C)C" , field pIC50: 7.68

Record "CCOc1ncccc1-c1cc(NCc2ccc(OC)nc2)c2c(n1)c(C)nn2C(C)C" , field pIC50: 7.55

Record "CCOc1ncccc1-c1cc(NCc2cncnc2OC)c2c(n1)c(C)nn2C(C)C" , field pIC50: 7.13

Record "COc1ncccc1CNc1cc(-c2cccnc2C(F)(F)F)nc2c(C)nn(C(C)C)c12" , field pIC50: 6.54

Record "CCOc1ncccc1-c1cc(NCc2cccnc2F)c2c(n1)c(C)nn2C(C)C" , field pIC50: 8.08

Record "CCOc1ncccc1-c1cc(NCc2ccccn2)c2c(n1)c(C)nn2C(C)C" , field pIC50: 8.20

Record "Cc1nocc1-c1cc(NCc2cnn(C)c2)c2c(n1)c(C)nn2C(C)C" , field pIC50: 7.02

Record CCOc1ncccc1-c1cc(NCc2ncn(C)n2)c2c(cnn2C(C)CC)n1 (single isomer, unassigned) [Example 141] , field pIC50: 7.36

Record "Cc1nn(C(C)C)c2c(NCc3cc[nH]n3)cc(-c3ccc[nH]c3=O)nc12" , field pIC50: 6.85

Record "CCOc1ncccc1-c1cc(NCc2nccn2C)c2c(cnn2C(C)C)n1" , field pIC50: 6.15

Record "CCOc1ncccc1-c1cc(NCc2noc(C)n2)c2c(n1)c(C)nn2C(C)C" , field pIC50: 8.72

Record "CCCn1ncc2nc(-c3cccnc3OCC)cc(NCc3cnn(C)c3)c21" , field pIC50: 7.05

###

target: PDE1C (Homo sapiens (Human), UniProt Q14123); test: biochemical; type: biochemical
Sequence (Q14123 whole entry): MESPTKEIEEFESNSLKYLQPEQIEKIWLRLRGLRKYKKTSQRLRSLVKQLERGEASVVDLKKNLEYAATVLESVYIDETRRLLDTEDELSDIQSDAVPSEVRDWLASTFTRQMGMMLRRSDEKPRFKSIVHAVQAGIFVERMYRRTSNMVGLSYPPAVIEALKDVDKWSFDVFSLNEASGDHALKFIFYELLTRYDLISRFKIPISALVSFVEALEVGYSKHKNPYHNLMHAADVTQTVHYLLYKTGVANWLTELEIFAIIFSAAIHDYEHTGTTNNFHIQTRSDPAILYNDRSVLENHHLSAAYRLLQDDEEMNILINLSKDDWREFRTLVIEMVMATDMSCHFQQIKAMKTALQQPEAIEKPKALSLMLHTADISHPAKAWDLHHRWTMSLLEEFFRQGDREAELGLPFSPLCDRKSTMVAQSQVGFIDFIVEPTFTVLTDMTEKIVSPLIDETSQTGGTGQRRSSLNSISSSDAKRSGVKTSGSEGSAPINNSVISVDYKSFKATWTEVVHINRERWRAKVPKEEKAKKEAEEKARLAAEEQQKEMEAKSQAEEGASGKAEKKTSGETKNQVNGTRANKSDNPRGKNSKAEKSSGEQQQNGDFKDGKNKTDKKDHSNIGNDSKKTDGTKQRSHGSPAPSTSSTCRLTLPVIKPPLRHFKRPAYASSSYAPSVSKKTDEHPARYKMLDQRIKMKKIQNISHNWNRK
Please respond with reported pIC50 for every item in the list.
Scale: pIC50 equals -log10([C]), with [C] in mol/L.

Record CCOc1ncccc1-c1cc(NCc2cc[nH]n2)c2c(cnn2C(C)CC)n1 (single isomer, unassigned) [Example 137] , field pIC50: 6.47

Record "[2H]C([2H])(C)Oc1ncccc1-c1cc(NCc2cccnc2OC)c2c(n1)c(C)nn2C(C)C" , field pIC50: 7.11

Record CCOc1ncccc1-c1cc(NCc2nnc(C)o2)c2c(cnn2C(C)CC)n1 (single isomer, unassigned) [Example 138] , field pIC50: 6.74

Record CCOc1ncccc1-c1cc(NCc2cc[nH]n2)c2c(n1)c(C)nn2C(C)CC (single isomer, unassigned) [Example 120] , field pIC50: 8.12

Record CCOc1ncccc1-c1cc(NCc2ncn(C)n2)c2c(cnn2C(C)CC)n1 (single isomer, unassigned) [Example 140] , field pIC50: 7.28

###

molecular target: PDE1C (Homo sapiens (Human), UniProt Q14123); assay: biochemical; type: biochemical; settings: 15 nM tritium labelled cAMP, 1 hr at room temperature, SPA beads
property_name: pIC50
Scale: pIC50 equals -log10([C]), with [C] in mol/L.

Record COc1ncccc1CNc1cc(-c2ccc[nH]c2=O)nc2c(C)nn(C(C)C)c12 [Example 171] , field pIC50: 6.38

Record CCOc1ncccc1-c1cc(NCc2cnn(C)c2)c2c(n1)c(C)nn2C(C)C [Example 9] , field pIC50: 7.77

Record CCOc1ncccc1-c1cc(NCc2cnc(OC)cn2)c2c(n1)c(C)nn2C(C)C [Example 114] , field pIC50: 7.34

Record Cc1nn(C(C)C)c2c(NCc3cnn(C)c3)cc(N3CCN(C(C)(C)C)C3=O)nc12 [Example 153] , field pIC50: 6.57

Record CCOc1ncccc1-c1cc(NCc2cn(C)nn2)c2c(n1)c(C)nn2C(C)C [Example 6] , field pIC50: 8.25

Record CCOc1ncccc1-c1cc(NCc2cc[nH]n2)c2c(cnn2C(C)C)n1 [Example 57] , field pIC50: 6.77

Record CCOc1ncccc1-c1cc(NCc2ccccc2OC)c2c(n1)c(C)nn2C(C)C [Example 88] , field pIC50: 6.77

Record CCOc1ncccc1-c1cc(NCc2c[nH]c(C)n2)c2c(n1)c(C)nn2C(C)C [Example 46] , field pIC50: 8.01

Record CCOc1ncccc1-c1cc(NCc2ccc(C)cc2)c2c(cnn2C(C)C)n1 [Example 24] , field pIC50: 5.92

Record CCOc1ncccc1-c1cc(NCc2ncc(C)s2)c2c(n1)c(C)nn2C(C)C [Example 2] , field pIC50: 8.31

Record Cc1nn(C(C)C)c2c(NCc3cnn(C)c3)cc(-c3ncnn3C)nc12 [Example 195] , field pIC50: 6.80

Record CCOc1ncccc1-c1cc(NCc2cccnc2C(F)F)c2c(n1)c(C)nn2C(C)C [Example 178] , field pIC50: 7.20

Record CCOc1ncccc1-c1cc(NCc2nccnc2OC)c2c(n1)c(C)nn2C(C)C [Example 91] , field pIC50: 7.15

Record CCOc1ncccc1-c1cc(NCc2coc(C)n2)c2c(n1)c(C)nn2C(C)C [Example 37] , field pIC50: 7.74

Record Cc1nn(C(C)C)c2c(NCc3cnn(C)c3)cc(-c3ccccc3)nc12 [Example 64] , field pIC50: 7.33

Record CCOc1ncccc1-c1cc(NCc2ccncc2)c2c(cnn2C(C)C)n1 [Example 22] , field pIC50: 6.37

Record CCOc1ncccc1-c1cc(NCc2c[nH]cn2)c2c(n1)c(C)nn2C(C)CC (single isomer, unassigned) [Example 130] , field pIC50: 7.60

###

Please respond with reported pIC50 for every item in the list.
biological target: PDE1A (Homo sapiens (Human), UniProt P54750); test: biochemical; assay type: biochemical; conditions: 15 nM tritium labelled cAMP, 1 hr at room temperature, SPA beads
Sequence (P54750 whole entry): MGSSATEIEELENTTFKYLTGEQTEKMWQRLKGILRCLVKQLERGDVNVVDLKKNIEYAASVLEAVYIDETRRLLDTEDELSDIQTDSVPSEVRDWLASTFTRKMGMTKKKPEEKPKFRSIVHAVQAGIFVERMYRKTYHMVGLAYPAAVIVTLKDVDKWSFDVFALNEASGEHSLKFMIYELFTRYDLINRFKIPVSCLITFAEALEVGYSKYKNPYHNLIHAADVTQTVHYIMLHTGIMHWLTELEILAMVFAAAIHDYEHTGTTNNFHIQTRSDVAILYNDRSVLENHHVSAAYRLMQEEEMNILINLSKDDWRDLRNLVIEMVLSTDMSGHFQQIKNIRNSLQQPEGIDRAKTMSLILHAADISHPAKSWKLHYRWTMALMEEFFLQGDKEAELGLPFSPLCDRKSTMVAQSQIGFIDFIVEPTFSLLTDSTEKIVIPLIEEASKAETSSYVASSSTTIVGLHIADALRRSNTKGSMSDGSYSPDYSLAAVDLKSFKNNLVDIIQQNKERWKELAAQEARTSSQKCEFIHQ
Scale: pIC50 equals -log10([C]), with [C] in mol/L.

Record CCOc1ncccc1-c1cc(NCc2cccnc2C(F)F)c2c(n1)c(C)nn2C(C)C [Example 178] , field pIC50: 7.51

Record COc1ncccc1CNc1cc(-c2cccnc2OC)nc2c(C)nn(C(C)C)c12 [Example 95] , field pIC50: 7.38

Record CCOc1ncccc1-c1cc(NCc2ccnc(C)n2)c2c(n1)c(C)nn2C(C)C [Example 105] , field pIC50: 7.27

Record CCOc1ncccc1-c1cc(NCc2ncccn2)c2c(n1)c(C)nn2C(C)C [Example 74] , field pIC50: 8.68

Record CCOc1ncccc1-c1cc(NCc2cnn(C)c2)c2c(cnn2C)n1 [Example 16] , field pIC50: 6.17

Record CCOc1ncccc1-c1cc(NCc2cc[nH]n2)c2c(cnn2C(C)CC)n1 (single isomer, unassigned) [Example 137] , field pIC50: 6.74

Record CCOc1ncccc1-c1cc(NCc2cnn(CC)c2)c2c(n1)c(C)nn2C(C)C [Example 109] , field pIC50: 8.31

Record CCOc1ncccc1-c1cc(NCc2nc(C)co2)c2c(n1)c(C)nn2C(C)C [Example 50, 2,2,2-trifluoroacetate] , field pIC50: 8.05

Record COc1ncccc1-c1cc(NCc2cnc(C)s2)c2c(n1)c(C)nn2C(C)C [Example 173] , field pIC50: 7.31

Record Cc1nn(C(C)C)c2c(NCc3cnn(C)c3)cc(-c3cccnc3OC(C)C)nc12 [Example 97] , field pIC50: 8.85

Record CCOc1ncccc1-c1cc(NCc2cc(C)no2)c2c(n1)c(C)nn2C(C)C [Example 10] , field pIC50: 8.39

Record CCCOc1ncccc1-c1cc(NCc2cc[nH]n2)c2c(n1)c(C)nn2C(C)C [Example 143] , field pIC50: 8.42

Record CCCOc1ncccc1-c1cc(NCc2cc[nH]n2)c2c(n1)c(C)nn2C(C)CC (single isomer, unassigned) [Example 135] , field pIC50: 8.72

Record CCOc1ncccc1-c1cc(NCc2cccnc2OC)c2c(n1)c(C)nn2C1COC1 [Example 197] , field pIC50: 6.72

Record Cc1nn(C(C)C)c2c(NCc3cccnc3C(F)(F)F)cc(-c3ccc[nH]c3=O)nc12 [Example 193] , field pIC50: 6.49

Record CCOc1ncccc1-c1cc(NCc2ccccc2)c2c(cnn2C(C)C)n1 [Example 41] , field pIC50: 6.30

Record CCOc1ncccc1-c1cc(NCc2cccnc2OC)c2c(n1)c(C)nn2C(C)C [Example 86] , field pIC50: 7.70

Record CCOc1ncccc1-c1cc(NCc2ccnn2C)c2c(cnn2C(C)C)n1 [Example 18] , field pIC50: 6.35

Record CCOc1ncccc1-c1cc(CNc2cncc(OC)c2)c2c(n1)c(C)nn2C(C)C [Example 157] , field pIC50: 7.47

Record CCOc1ncccc1-c1cc(NCc2cc(CF)no2)c2c(n1)c(C)nn2C(C)C [Example 167] , field pIC50: 7.96

Record COc1ccc(CNc2cc(-c3cccnc3N(C)C)nc3c(C)nn(C(C)C)c23)cc1 [Example 192] , field pIC50: 6.20

Record Cc1cnc(-c2cc(NCc3cnn(C)c3)c3c(n2)c(C)nn3C(C)C)s1 [Example 148] , field pIC50: 6.96

Record CCOc1ncccc1-c1cc(NCc2cnn(C)c2)c2c(cnn2C2COC2)n1 [Example 14] , field pIC50: 6.35

Record Cc1nn(C(C)C)c2c(NCc3cnn(C)c3)cc(N3C(=O)OCC3C)nc12 (stereo not shown) [Example 155] , field pIC50: 8.09

Record CCOc1ncccc1-c1cc(NCc2ncc(OC)cn2)c2c(n1)c(C)nn2C(C)C [Example 176] , field pIC50: 7.09

Record Cc1nn(C(C)C)c2c(NCc3cnn(C)c3)cc(-c3ccccc3)nc12 [Example 64] , field pIC50: 7.28

Record CCOc1ncccc1-c1cc(NCc2ncc(C)s2)c2c(n1)c(C)nn2C(C)C [Example 2] , field pIC50: 9.34

Record CCOc1ncccc1-c1cc(NCc2cnn(C)c2)c2c(n1)c(C)nn2C(C)C [Example 9] , field pIC50: 8.59

Record CCOc1ncccc1-c1cc(NCc2nccc(C)n2)c2c(n1)c(C)nn2C(C)C [Example 75] , field pIC50: 8.00

Record COc1ncccc1CNc1cc(-c2ccc[nH]c2=O)nc2c(C)nn(C(C)C)c12 [Example 171] , field pIC50: 6.54

Record CCOc1ncccc1-c1cc(NCc2csc(C)c2)c2c(n1)c(C)nn2C(C)C [Example 34] , field pIC50: 8.09

Record CCOc1ncccc1-c1cc(NCc2ccc(OC)cn2)c2c(n1)c(C)nn2C(C)C [Example 112] , field pIC50: 7.21

Record CCOc1ncccc1-c1cc(NCc2ccc(C)s2)c2c(n1)c(C)nn2C(C)C [Example 36] , field pIC50: 7.62

Record COc1ncccc1CNc1cc(-c2cccnc2OC(F)F)nc2c(C)nn(C(C)C)c12 [Example 188] , field pIC50: 7.21
